B1: Ankyrin-3, residues 4094 to 4171; numbered along this chain, Q12955 (parent)
chain: MAIVADHLGLSWTELARELNFSVDEINQIRVENPNSLISQSFMLLKKWVTRDGKNATTDALTSVLTKINRIDIVTLLE

- Variants of: B1
- assay_explanation: abundance fitness (aPCA) (normalised: wild type 0, dead -1); higher = more abundant; growth selection in yeast, the domain comes from the species named
- setup_conditions: Homo sapiens
readout_kind: abundance fitness
Write the value as a bare number.

Q. In one line, give reported abundance fitness of the entry `T58A` .
A. -0.051

Q. In one line, give reported abundance fitness of the entry `M1N` .
A. -0.099

Q. In one line, give reported abundance fitness of the entry `Q28C` .
A. -0.318

Q. In one line, give reported abundance fitness of the entry `V74Y` .
A. -0.55

Q. In one line, give reported abundance fitness of the entry `L37E` .
A. 0.026

Q. In one line, give reported abundance fitness of the entry `V31R` .
A. 0.041

Q. In one line, give reported abundance fitness of the entry `S63K` .
A. 0.002

Q. In one line, give reported abundance fitness of the entry `L19S` .
A. -1.05

Q. In one line, give reported abundance fitness of the entry `T57S` .
A. -0.117

Q. In one line, give reported abundance fitness of the entry `D59R` .
A. -0.072

Q. In one line, give reported abundance fitness of the entry `W48P` .
A. -0.923

Q. In one line, give reported abundance fitness of the entry `I38K` .
A. 0.05

Q. In one line, give reported abundance fitness of the entry `D6A` .
A. -0.25

Q. In one line, give reported abundance fitness of the entry `L44R` .
A. -0.796

Q. In one line, give reported abundance fitness of the entry `N69R` .
A. -0.224

Q. In one line, give reported abundance fitness of the entry `N20Y` .
A. -0.348

Q. In one line, give reported abundance fitness of the entry `S63T` .
A. 0.023

Q. In one line, give reported abundance fitness of the entry `A60C` .
A. -0.09

Q. In one line, give reported abundance fitness of the entry `L76T` .
A. -0.197

Q. In one line, give reported abundance fitness of the entry `N27T` .
A. -0.174

Q. In one line, give reported abundance fitness of the entry `Q40G` .
A. -0.74

Q. In one line, give reported abundance fitness of the entry `L8Y` .
A. -0.63

Q. In one line, give reported abundance fitness of the entry `L37D` .
A. -0.254

Q. In one line, give reported abundance fitness of the entry `A16W` .
A. -0.79

Q. In one line, give reported abundance fitness of the entry `A2Q` .
A. 0.058

Q. In one line, give reported abundance fitness of the entry `N55Q` .
A. 0.011

Q. In one line, give reported abundance fitness of the entry `V23C` .
A. -0.22

Q. In one line, give reported abundance fitness of the entry `I3G` .
A. -0.506

Q. In one line, give reported abundance fitness of the entry `L77R` .
A. -0.93

Q. In one line, give reported abundance fitness of the entry `E32S` .
A. -0.185

Q. In one line, give reported abundance fitness of the entry `D24K` .
A. -0.195

Q. In one line, give reported abundance fitness of the entry `D52S` .
A. -0.589

Q. In one line, give reported abundance fitness of the entry `K46E` .
A. -0.013

Q. In one line, give reported abundance fitness of the entry `A2G` .
A. 0.14

Q. In one line, give reported abundance fitness of the entry `F42A` .
A. 0.043

Q. In one line, give reported abundance fitness of the entry `Q28H` .
A. -0.202

Q. In one line, give reported abundance fitness of the entry `A56I` .
A. -0.298

Q. In one line, give reported abundance fitness of the entry `T66W` .
A. -0.173

Q. In one line, give reported abundance fitness of the entry `T75N` .
A. 0.06

Q. In one line, give reported abundance fitness of the entry `T75H` .
A. -0.219

Q. In one line, give reported abundance fitness of the entry `I38C` .
A. -0.038

Q. In one line, give reported abundance fitness of the entry `H7S` .
A. -0.358

Q. In one line, give reported abundance fitness of the entry `L44A` .
A. -0.391

Q. In one line, give reported abundance fitness of the entry `S63M` .
A. -0.046

Q. In one line, give reported abundance fitness of the entry `T57G` .
A. -0.387

Q. In one line, give reported abundance fitness of the entry `N27K` .
A. -0.112

Q. In one line, give reported abundance fitness of the entry `I3C` .
A. -0.225

Q. In one line, give reported abundance fitness of the entry `L44C` .
A. -0.116

Q. In one line, give reported abundance fitness of the entry `L76Q` .
A. 0.028

Q. In one line, give reported abundance fitness of the entry `E78Y` .
A. -0.159

Q. In one line, give reported abundance fitness of the entry `D59H` .
A. -0.058

Q. In one line, give reported abundance fitness of the entry `L19G` .
A. -1.01

Q. In one line, give reported abundance fitness of the entry `V64G` .
A. -0.05

Q. In one line, give reported abundance fitness of the entry `D59M` .
A. 0.022

Q. In one line, give reported abundance fitness of the entry `K46V` .
A. -0.373

Q. In one line, give reported abundance fitness of the entry `A16Q` .
A. -0.749

Q. In one line, give reported abundance fitness of the entry `N35T` .
A. -0.018

Q. In one line, give reported abundance fitness of the entry `R51I` .
A. -0.616

Q. In one line, give reported abundance fitness of the entry `N27A` .
A. -0.082

Q. In one line, give reported abundance fitness of the entry `I68F` .
A. -0.963

Q. In one line, give reported abundance fitness of the entry `N69W` .
A. -1.01

Q. In one line, give reported abundance fitness of the entry `R17D` .
A. -0.203

Q. In one line, give reported abundance fitness of the entry `Q28R` .
A. -0.071

Q. In one line, give reported abundance fitness of the entry `I29R` .
A. -0.857

Q. In one line, give reported abundance fitness of the entry `L15S` .
A. -0.772

Q. In one line, give reported abundance fitness of the entry `M43V` .
A. -0.074

Q. In one line, give reported abundance fitness of the entry `L44E` .
A. -0.902

Q. In one line, give reported abundance fitness of the entry `N27F` .
A. -0.244

Q. In one line, give reported abundance fitness of the entry `L44G` .
A. -0.93

Q. In one line, give reported abundance fitness of the entry `T62N` .
A. -0.44

Q. In one line, give reported abundance fitness of the entry `L76R` .
A. 0.045

Q. In one line, give reported abundance fitness of the entry `L10G` .
A. -0.043

Q. In one line, give reported abundance fitness of the entry `D52L` .
A. -0.89

Q. In one line, give reported abundance fitness of the entry `K67L` .
A. -0.641

Q. In one line, give reported abundance fitness of the entry `M1G` .
A. -0.566
